Cited source for all entries: patent US7196088B2

Study system: recombinant human 5-HT6 receptor (Homo sapiens)
Sequence (P50406 whole entry): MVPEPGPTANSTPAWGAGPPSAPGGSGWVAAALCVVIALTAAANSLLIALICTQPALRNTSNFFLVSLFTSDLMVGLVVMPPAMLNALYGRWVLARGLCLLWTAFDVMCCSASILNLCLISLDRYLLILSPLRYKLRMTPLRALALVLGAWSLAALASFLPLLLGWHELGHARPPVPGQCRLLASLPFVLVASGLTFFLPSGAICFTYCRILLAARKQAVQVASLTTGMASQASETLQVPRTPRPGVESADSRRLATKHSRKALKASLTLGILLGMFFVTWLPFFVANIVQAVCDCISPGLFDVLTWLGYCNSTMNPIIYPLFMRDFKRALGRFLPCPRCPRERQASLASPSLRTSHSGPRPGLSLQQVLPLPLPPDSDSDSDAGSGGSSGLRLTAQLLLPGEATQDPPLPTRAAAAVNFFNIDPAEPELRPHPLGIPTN
Experimental details: Radioligand binding studies: competition for [3H]LSD binding in membranes of HEK293 cells expressing the receptor
Observable: Ki (nM)
I only need the number, in nM, no unit after it.

Consider the molecule O=S(=O)(c1cccc(Cl)c1Cl)N1CCc2c(cccc2N2CCNCC2)C1 . State its measured Ki.
0.0427
